# assayed-system: LRRK2 (G2019S) (Homo sapiens, UniProt Q5S007, G2019S)
# Construct: Recombinant GST-LRRK2 (delta970), purified from baculovirus infected insect cells (SF9); GST (N)
# Sequence (Q5S007 970-2527 G2019S limits assumed): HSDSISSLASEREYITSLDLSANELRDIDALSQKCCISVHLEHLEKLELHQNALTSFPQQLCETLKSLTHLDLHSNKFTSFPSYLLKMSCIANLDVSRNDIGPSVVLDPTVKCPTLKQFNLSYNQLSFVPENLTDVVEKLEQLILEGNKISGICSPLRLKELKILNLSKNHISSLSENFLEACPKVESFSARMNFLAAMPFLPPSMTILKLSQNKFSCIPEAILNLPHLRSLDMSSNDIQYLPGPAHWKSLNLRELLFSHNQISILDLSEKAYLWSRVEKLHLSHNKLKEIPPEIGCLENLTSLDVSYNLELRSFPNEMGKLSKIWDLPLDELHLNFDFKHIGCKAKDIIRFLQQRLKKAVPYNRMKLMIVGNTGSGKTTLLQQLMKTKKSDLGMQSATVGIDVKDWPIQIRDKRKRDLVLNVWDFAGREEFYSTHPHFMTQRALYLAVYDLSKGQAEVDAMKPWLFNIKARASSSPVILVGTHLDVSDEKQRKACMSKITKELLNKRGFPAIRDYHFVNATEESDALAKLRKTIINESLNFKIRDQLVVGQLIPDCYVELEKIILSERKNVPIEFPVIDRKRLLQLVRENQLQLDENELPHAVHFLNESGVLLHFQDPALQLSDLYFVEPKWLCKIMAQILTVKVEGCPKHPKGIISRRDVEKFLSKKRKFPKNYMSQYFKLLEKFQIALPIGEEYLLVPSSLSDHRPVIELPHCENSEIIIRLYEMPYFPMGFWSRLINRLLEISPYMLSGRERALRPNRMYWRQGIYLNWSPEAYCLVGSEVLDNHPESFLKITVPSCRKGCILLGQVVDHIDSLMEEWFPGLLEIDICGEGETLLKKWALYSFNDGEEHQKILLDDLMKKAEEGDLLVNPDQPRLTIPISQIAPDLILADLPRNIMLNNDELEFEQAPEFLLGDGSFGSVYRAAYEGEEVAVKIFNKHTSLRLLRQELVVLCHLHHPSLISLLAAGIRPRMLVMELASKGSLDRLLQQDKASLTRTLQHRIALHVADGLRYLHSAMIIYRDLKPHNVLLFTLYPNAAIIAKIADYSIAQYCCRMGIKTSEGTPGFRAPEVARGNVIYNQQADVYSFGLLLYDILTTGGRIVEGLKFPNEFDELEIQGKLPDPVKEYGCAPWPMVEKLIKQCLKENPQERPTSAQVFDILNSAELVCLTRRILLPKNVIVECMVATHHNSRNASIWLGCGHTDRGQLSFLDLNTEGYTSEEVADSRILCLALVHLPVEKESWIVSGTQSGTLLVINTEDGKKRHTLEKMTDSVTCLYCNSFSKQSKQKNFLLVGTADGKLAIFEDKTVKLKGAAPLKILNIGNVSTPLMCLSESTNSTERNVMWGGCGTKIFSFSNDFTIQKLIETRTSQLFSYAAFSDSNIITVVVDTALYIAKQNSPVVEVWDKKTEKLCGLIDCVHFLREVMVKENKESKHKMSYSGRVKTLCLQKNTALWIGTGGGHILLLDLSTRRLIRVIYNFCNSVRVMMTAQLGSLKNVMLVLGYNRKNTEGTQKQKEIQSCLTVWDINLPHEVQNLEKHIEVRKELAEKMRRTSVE
# experimental-protocol: LRRK2 inhibition, radiometric kinase assay with recombinant GST-LRRK2 (delta970) and peptide substrate
# test-parameters: GST-LRRK2 (delta970) G2019S 30 nM, ATP ~52 μM (Km), 30 min at 30° C.
metric-name: IC50

- compound: "CCC(Sc1ccc2nnc(-c3ccccc3OC)n2n1)C(=O)N1CCCCC1 (centres unmarked) [Example 70]"
  assayed-system: "LRRK2 (G2019S) (Homo sapiens, UniProt Q5S007, G2019S)"
  IC50: "≥ 5 µM"
- compound: "CCOC(=O)C1CCCN(C(=O)C(CC)Sc2ccc3nnc(-c4cccs4)n3n2)C1 (centres unmarked) [Example 103]"
  assayed-system: "LRRK2 (G2019S) (Homo sapiens, UniProt Q5S007, G2019S)"
  IC50: "1 to 5 µM"
- compound: "CCC(Sc1ccc2nnc(-c3cccc(OC)c3)n2n1)C(=O)N1CCCCC1 (centres unmarked) [Example 73]"
  assayed-system: "LRRK2 (G2019S) (Homo sapiens, UniProt Q5S007, G2019S)"
  IC50: "0.1 to 1 µM"
- compound: "O=C(O)CSc1ccc2nnc(-c3cc4ccccc4s3)n2n1 [Example 30]"
  assayed-system: "LRRK2 (G2019S) (Homo sapiens, UniProt Q5S007, G2019S)"
  IC50: "≥ 5 µM"
- compound: "c1csc(-c2nnc3ccc(N4CCCCC4)nn23)c1 [Example 20]"
  assayed-system: "LRRK2 (G2019S) (Homo sapiens, UniProt Q5S007, G2019S)"
  IC50: "≥ 5 µM"
- compound: "CCC(Sc1ccc2nnc(-c3cccs3)n2n1)C(=O)NCc1cccs1 (centres unmarked) [Example 48]"
  assayed-system: "LRRK2 (G2019S) (Homo sapiens, UniProt Q5S007, G2019S)"
  IC50: "0.1 to 1 µM"
- compound: "CCC(Nc1ccc2nnc(-c3cccs3)n2n1)C(N)=O (centres unmarked) [Example 99]"
  assayed-system: "LRRK2 (G2019S) (Homo sapiens, UniProt Q5S007, G2019S)"
  IC50: "≥ 5 µM"
- compound: "CCOC(=O)C(CC)Sc1ccc2nnc(-c3ccccc3OC)n2n1 (centres unmarked) [Example 68]"
  assayed-system: "LRRK2 (G2019S) (Homo sapiens, UniProt Q5S007, G2019S)"
  IC50: "≥ 5 µM"
- compound: "CCOC(=O)C(CC)Sc1ccc2nnc(-c3ccc(C(F)(F)F)cc3)n2n1 (centres unmarked) [Example 77]"
  assayed-system: "LRRK2 (G2019S) (Homo sapiens, UniProt Q5S007, G2019S)"
  IC50: "≥ 5 µM"
- compound: "O=C(O)CSc1ccc2nnc(-c3ccco3)n2n1 [Example 28]"
  assayed-system: "LRRK2 (G2019S) (Homo sapiens, UniProt Q5S007, G2019S)"
  IC50: "≥ 5 µM"

*Q* Given the entry CC(Sc1ccc2nnc(-c3ncccn3)n2n1)C(=O)N1CCCCC1 (centres unmarked) [Example 109] , report its measured IC50.
*A* 0.1 to 1 µM

*Q* Same question, CCC(Sc1ccc2nnc(-c3cccs3)n2n1)C(=O)O (centres unmarked) [Example 18] this time
*A* 0.1 to 1 µM

*Q* Repeat for the following compound: CCC(Sc1ccc2nnc(-c3ccc(F)c(F)c3)n2n1)C(=O)O (centres unmarked) [Example 54]
*A* 0.1 to 1 µM

*Q* Then CCOC(=O)C(CC)Sc1ccc2nnc(-c3ccccc3F)n2n1 (centres unmarked) [Example 74] ?
*A* 1 to 5 µM

*Q* Please answer likewise for NC(=O)CSc1ccc2nnc(-c3nccs3)n2n1 [Example 37]
*A* ≥ 5 µM

*Q* Can you handle Cc1scc(-c2nnc3ccc(SCC(=O)O)nn23)c1-c1ccccc1 [Example 39] next?
*A* ≥ 5 µM

*Q* Further, for CCC(Nc1ccc2nnc(-c3cccs3)n2n1)C(=O)N1CCCCC1 (centres unmarked) [Example 100] ?
*A* ≥ 5 µM

*Q* Could you do the same for O=C(CSc1ccc2nnc(-c3ccc(F)cc3)n2n1)Nc1nccs1 [Example 43] , please?
*A* ≥ 5 µM

*Q* And then CCC(Sc1ccc2nnc(-c3cccs3)n2n1)C(=O)N1CCCCCC1 (centres unmarked) [Example 50] , what is it?
*A* ≥ 5 µM

*Q* Here is the next compound: O=C(O)CSc1ccc2nnc(-c3cccs3)n2n1 [Example 27]
*A* ≥ 5 µM
